Test: Antiangiogenic activity in zebrafish embryo assessed as inhibition of intersegmental vessels growth after 24 hours by alkaline phosphatase staining
Type: functional, tissue-based, Danio rerio
measured quantity: IC50

// solved cases for IC50 follow
CC(=O)O[C@H]1[C@@H]2[C@H]([C@H](OC(=O)c3ccccc3)[C@H](O)/C(C)=C/[C@@]34O[C@@]3(C[C@@H](C)[C@@H]4OC(=O)c3ccccc3)C(=O)[C@@H]1C)C2(C)C    > 5 µg/mL
C/C=C(\C)C(=O)O[C@H]1[C@H]2[C@@H]([C@H](OC(C)=O)[C@@H](C)C(=O)[C@@]34C[C@H](C)[C@H](OC(=O)/C(C)=C/C)[C@]3(/C=C(\C)[C@H]1O)O4)C2(C)C    > 5 µg/mL

Kindly consider the entry below.
[ask] Report IC50, nothing else, for this compound: C/C=C(\C)C(=O)O[C@H]1[C@@H](C)C[C@@]23O[C@@]12/C=C(\C)[C@@H](O)[C@@H](OC(=O)c1ccccc1)[C@H]1[C@@H]([C@H](OC(C)=O)[C@@H](C)C3=O)C1(C)C
[reply] > 5 µg/mL
